Consider the following molecules; for each one, report its IC50.
# Test system: AGS cells (KRAS G12D)
# METHOD NOTES: Cell proliferation inhibition assay, 3D, CellTiter-Glo 3D, AGS
# Type: cell-based, human
# CONDITION CONTEXT: AGS 3D sphere model, 5 days incubation

A selection of reference data follows.
Input line: Form entry - test system: AGS cells (KRAS G12D); read-out: IC50; molecule: C#Cc1c(F)ccc2cccc(-c3nc4c5c(nc(OC[C@@]67CC(=C)CN6CC[C@@H]7OC)nc5c3F)N3C[C@H]5CC[C@H](N5)[C@H]3[C@H](C)O4)c12 (single isomer, unassigned) [Example Z696]
Output line: 598 nM

Input line: Form entry - test system: AGS cells (KRAS G12D); read-out: IC50; molecule: C#Cc1c(F)ccc2cccc(-c3nc4c5c(nc(OCC6(CN7CCC(O)C7)CC6)nc5c3F)N3C[C@H]5CC[C@H](N5)[C@H]3[C@H](C)O4)c12 (stereo partly drawn) [Example Z721]
Output line: 43.6 nM

Please examine the following record next.
Input line: Form entry - test system: AGS cells (KRAS G12D); read-out: IC50; molecule: C[C@@H]1Oc2nc(-c3cc(N)cc4ccc(F)c(F)c34)c(F)c3nc(OCC4(CN5CCOCC5)CC4)nc(c23)N2C[C@H]3CC[C@H](N3)[C@@H]12 [Example Z719]
Output line: 1.03 nM

Values were extracted from patent US20250186456A1.
